Biological target: DNA topoisomerase II (Homo sapiens, UniProt P11388+Q02880)
Assay: Inhibition of topoisomerase 2 in human A549 cells assessed as reduction in cell growth measured after 72 hrs by MTT assay
Type: cell-based
Measurement type: IC50 (µM)

INSERT INTO assay_data (compound, measured_target, measurement_type, prefix_operator, experimental_result) VALUES
  ('O=C1c2ccccc2C(=O)c2c(O)c(C(O)c3cc(Br)cs3)cc(O)c21 (stereo not drawn)', 'DNA topoisomerase II (Homo sapiens, UniProt P11388+Q02880)', 'IC50', '=', 41.5),
  ('O=C1c2ccccc2C(=O)c2c(O)ccc(O)c21 [QUINIZARIN]', 'DNA topoisomerase II (Homo sapiens, UniProt P11388+Q02880)', 'IC50', '>', 200),
  ('N#Cc1ccc(C(O)c2cc(O)c3c(c2O)C(=O)c2ccccc2C3=O)cc1 (stereo not drawn)', 'DNA topoisomerase II (Homo sapiens, UniProt P11388+Q02880)', 'IC50', '=', 17.6);
